Data provenance: ChEMBL document CHEMBL5244228

Target: Peroxisome proliferator-activated receptor gamma (Homo sapiens, UniProt P37231)
Sequence (P37231 whole entry): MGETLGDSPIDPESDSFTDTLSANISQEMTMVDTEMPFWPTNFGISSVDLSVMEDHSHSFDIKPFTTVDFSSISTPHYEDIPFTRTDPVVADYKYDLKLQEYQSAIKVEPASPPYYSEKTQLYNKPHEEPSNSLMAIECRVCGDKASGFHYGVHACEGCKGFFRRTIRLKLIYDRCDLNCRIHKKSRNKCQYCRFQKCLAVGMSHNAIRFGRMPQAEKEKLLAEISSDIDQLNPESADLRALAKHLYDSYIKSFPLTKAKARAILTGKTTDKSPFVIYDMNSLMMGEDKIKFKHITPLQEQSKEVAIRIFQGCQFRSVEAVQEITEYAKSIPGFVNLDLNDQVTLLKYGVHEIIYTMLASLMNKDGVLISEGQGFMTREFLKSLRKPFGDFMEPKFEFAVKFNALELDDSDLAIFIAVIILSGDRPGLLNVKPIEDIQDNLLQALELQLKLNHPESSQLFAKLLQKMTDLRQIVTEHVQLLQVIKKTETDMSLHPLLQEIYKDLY
Assay: Displacement of [3H]rosiglitazone from human PPAR-gamma incubated for 1 day by radioligand binding assay
pKi: −log10 of the molar value.
value.kind: pKi

[1] CCCC=C1C(=O)O[C@@H](C)[C@@H]1O
[2] CCCCCCCCCCCCC/C=C1/C(=O)O[C@@H](C)[C@H]1O
[3] CCCCCCCCCCCCC/C=C1/C(=O)O[C@@H](C)[C@@H]1O
Hey, quick one: sort these by pKi, low to high? Labels, requested order.
1, 2, 3
